# system: Corticotropin-releasing factor receptor 2/Corticotropin-releasing factor-binding protein (Homo sapiens, UniProt P24387+Q13324)
# Sequence (Q13324 whole entry): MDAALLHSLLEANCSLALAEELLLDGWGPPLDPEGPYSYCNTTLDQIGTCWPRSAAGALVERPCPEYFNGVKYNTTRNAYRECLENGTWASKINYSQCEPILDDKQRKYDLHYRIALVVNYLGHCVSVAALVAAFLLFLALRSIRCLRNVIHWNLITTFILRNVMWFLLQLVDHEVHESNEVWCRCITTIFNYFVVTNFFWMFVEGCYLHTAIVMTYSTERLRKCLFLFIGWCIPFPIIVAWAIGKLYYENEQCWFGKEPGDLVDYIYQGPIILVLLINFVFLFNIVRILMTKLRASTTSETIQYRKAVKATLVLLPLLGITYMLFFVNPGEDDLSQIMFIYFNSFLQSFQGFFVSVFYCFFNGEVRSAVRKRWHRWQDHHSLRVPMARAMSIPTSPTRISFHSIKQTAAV
# Sequence (P24387 whole entry): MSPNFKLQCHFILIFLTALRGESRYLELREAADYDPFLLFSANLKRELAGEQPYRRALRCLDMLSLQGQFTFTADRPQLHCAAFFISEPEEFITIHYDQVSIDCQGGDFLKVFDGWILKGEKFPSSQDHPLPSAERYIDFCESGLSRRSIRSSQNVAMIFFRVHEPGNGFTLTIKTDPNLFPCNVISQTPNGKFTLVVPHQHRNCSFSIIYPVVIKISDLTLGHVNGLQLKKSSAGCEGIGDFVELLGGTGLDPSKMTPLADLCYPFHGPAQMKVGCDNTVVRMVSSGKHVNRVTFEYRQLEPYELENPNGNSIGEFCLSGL
# assay-remarks: Dose Response confirmation of uHTS hits for small molecule antagonists of the CRF-binding protein and CRF-R2 receptor complex.
# Format: functional
# settings: read-out: IC50_Mean
Calls of active or inactive are those of the source.
Response enum: T = active, F = inactive

{"columns": ["compound", "assigned-category"],
 "data": [
  ["COc1cccc(C(=O)N2CCCC(CCC(=O)NCc3ccc(F)c(F)c3)C2)c1 (stereo not given)", "F"],
  ["COc1ccc(/C=C/C(=O)NCc2cn(C)nc2C)cc1COc1ccc(Cl)cc1Br", "T"],
  ["Nc1nc(F)nc2c1ncn2[C@@H]1O[C@H](CO)[C@@H](O)[C@@H]1O [FLUDARABINE]", "F"],
  ["CCN(CC)CCN(C(=O)CN1C(=O)c2ccccc2C1=O)c1nc2cc3c(cc2s1)OCO3", "F"]
]}

Attention now turns to another entry.
Just curious, what result did Cc1nn(-c2ccccc2)c(Cl)c1/C=C/C(=O)c1ccc(O)cc1 get here?
F

====

# system: Histone-lysine N-methyltransferase NSD2 (Homo sapiens)
# Sequence (O96028 whole entry): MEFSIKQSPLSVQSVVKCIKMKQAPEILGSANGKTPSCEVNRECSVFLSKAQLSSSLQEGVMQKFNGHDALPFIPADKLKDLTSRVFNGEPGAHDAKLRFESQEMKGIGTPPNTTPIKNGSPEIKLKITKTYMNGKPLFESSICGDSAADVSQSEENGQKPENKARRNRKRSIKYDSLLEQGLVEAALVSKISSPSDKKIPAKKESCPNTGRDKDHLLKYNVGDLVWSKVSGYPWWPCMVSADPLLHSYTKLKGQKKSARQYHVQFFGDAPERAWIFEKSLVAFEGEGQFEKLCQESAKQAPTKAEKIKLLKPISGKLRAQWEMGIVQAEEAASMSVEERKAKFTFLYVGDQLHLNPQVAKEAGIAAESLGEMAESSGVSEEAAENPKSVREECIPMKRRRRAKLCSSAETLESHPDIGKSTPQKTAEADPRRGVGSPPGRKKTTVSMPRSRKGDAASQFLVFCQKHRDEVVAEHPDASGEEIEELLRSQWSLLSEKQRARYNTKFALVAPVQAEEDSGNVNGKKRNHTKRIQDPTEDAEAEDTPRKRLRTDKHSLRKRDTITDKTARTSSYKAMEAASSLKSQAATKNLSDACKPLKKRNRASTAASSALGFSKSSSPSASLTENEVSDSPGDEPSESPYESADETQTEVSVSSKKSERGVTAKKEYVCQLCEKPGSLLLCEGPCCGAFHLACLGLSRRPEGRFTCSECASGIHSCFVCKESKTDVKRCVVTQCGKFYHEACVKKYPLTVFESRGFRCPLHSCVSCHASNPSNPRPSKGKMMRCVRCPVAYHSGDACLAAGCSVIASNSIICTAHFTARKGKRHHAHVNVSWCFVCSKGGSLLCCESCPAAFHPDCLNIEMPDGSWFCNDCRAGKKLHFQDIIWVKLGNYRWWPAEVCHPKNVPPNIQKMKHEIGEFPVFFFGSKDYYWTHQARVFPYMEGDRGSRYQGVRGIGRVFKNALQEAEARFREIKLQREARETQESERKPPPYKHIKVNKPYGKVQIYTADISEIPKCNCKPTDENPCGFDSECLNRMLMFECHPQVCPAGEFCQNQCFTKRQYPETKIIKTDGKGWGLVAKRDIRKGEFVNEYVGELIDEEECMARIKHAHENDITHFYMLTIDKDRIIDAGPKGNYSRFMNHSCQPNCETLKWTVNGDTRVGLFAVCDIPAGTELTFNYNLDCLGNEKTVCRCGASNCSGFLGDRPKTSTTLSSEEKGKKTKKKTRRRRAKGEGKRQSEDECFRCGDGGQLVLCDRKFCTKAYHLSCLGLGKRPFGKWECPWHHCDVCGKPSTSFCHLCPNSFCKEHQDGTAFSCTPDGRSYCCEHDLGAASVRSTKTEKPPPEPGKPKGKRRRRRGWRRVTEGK
# Format: biochemical
Activity calls are given as the source filed them.
Response enum: active, inactive

// below: answered compounds
{"columns": ["smiles-entry", "assigned-category"],
 "data": [
  ["CN(C=[N+](C)C)c1cccc2c1C(=O)c1ccccc1C2=O", "inactive"],
  ["O=C1NC(=O)C(=Cc2ccc(SC3CCCCC3)o2)C(=O)N1", "inactive"],
  ["CC1=NOC(=O)/C1=C\\c1ccc(-c2ccccc2Br)o1", "inactive"],
  ["O=C(/C=C/c1ccco1)Nc1cccc(C(=O)Nc2ccccc2C(=O)O)c1", "active"],
  ["CCC1=NN2C(=N)/C(=C\\c3ccc(SCc4ccco4)o3)C(=O)N=C2S1", "active"]
]}

Just curious, what result did C=CCn1c(NC(=O)c2ccc(Br)o2)c(S(=O)(=O)c2ccccc2)c2nc3ccccc3nc21 get here?
active

Just curious, what result did CSc1ccc(/C=N/Nc2cccc(C(=O)O)c2)cc1 get here?
active

Just curious, what result did CCN(CC)CCCNC(=O)C1CCN(C(=O)c2oc3cc4sc(N(C)C)nc4cc3c2C)CC1 get here?
inactive

====

# system: Aminopeptidase N (Plasmodium falciparum FcB1/Columbia)
# Sequence (O96935 whole entry): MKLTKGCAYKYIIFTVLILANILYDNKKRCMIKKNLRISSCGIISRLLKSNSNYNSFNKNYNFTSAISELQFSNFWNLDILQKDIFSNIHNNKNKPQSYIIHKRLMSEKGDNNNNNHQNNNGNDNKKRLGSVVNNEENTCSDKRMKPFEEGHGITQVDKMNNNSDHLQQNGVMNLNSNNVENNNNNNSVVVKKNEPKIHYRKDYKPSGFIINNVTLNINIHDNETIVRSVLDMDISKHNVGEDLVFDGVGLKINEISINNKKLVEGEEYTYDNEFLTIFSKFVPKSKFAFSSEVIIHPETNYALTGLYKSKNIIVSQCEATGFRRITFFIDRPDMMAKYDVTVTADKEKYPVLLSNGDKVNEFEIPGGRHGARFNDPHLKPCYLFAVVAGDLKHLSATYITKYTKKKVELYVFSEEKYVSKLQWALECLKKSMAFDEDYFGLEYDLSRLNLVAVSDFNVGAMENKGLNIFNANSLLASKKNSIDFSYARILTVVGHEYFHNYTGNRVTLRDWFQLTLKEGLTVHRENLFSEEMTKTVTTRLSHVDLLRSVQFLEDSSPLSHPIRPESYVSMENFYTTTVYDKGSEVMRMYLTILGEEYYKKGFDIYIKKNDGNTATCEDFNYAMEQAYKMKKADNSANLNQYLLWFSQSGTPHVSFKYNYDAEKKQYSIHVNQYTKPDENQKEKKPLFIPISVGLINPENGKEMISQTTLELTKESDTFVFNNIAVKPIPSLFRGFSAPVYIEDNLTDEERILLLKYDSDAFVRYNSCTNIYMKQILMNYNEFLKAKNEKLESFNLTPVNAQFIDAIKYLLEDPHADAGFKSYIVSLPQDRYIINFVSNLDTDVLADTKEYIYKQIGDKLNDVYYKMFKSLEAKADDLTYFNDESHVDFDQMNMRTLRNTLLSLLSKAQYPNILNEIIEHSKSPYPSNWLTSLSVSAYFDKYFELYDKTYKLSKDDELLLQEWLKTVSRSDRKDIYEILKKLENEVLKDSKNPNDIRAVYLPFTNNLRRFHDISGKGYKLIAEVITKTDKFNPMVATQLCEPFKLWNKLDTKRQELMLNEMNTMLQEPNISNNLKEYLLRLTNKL
# assay-remarks: malaria alanyl aminopeptidase activity blockers – biochemical, fluorogenic H-Leu-NHMec substrate, 1536-well (AID 1445)
# Set-up: species or system Plasmodium falciparum 3D7, 3D7
Activity calls are given as the source filed them.
recorded-metric: IC50

Here are 5 compounds together with their reported answers.
{"columns": ["smiles-entry", "system", "recorded-metric", "result"],
 "data": [
  ["COc1cc(/C=C2/C(=O)c3cccc([N+](=O)[O-])c3C2=O)c(Br)cc1O", "Aminopeptidase N (Plasmodium falciparum FcB1/Columbia)", "IC50", "5.94 µM (active)"],
  ["CCN1C(=O)/C(=C2\\SC(=S)N(NC(=O)c3ccccc3O)C2=O)c2ccccc21", "Aminopeptidase N (Plasmodium falciparum FcB1/Columbia)", "IC50", "9.43 µM (active)"],
  ["Nc1c(C(=O)O)cnc2c(-c3ccc(Cl)cc3)cnn12", "Aminopeptidase N (Plasmodium falciparum FcB1/Columbia)", "IC50", "42.4 µM (active)"],
  ["COC(=O)c1ccc(Cl)c(NS(=O)(=O)c2ccc3c(c2)OCCO3)c1", "Aminopeptidase N (Plasmodium falciparum FcB1/Columbia)", "IC50", "29.7 µM (active)"],
  ["COc1ccccc1C(=O)Oc1cc(N)n(S(=O)(=O)c2ccc(C)cc2)n1", "Aminopeptidase N (Plasmodium falciparum FcB1/Columbia)", "IC50", "99.9 µM (active)"]
]}

Requested read-out: IC50. Entry: C=CCn1c(NC(=O)c2ccc(Br)o2)c(S(=O)(=O)c2ccccc2)c2nc3ccccc3nc21
17.4 µM (active)

====

# system: G-protein coupled receptor 55 (Homo sapiens)
# Sequence (Q9Y2T6 whole entry): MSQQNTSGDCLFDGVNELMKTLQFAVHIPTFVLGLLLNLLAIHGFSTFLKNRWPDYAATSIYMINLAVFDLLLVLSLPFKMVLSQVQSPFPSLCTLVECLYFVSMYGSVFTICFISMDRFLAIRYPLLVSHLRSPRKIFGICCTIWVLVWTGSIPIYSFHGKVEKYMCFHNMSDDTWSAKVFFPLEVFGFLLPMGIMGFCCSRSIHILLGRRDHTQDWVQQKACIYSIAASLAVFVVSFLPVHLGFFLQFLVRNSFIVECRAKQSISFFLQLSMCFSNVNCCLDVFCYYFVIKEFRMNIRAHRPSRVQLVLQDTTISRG
# assay-remarks: selective activators of receptor GPR55 – imaging, U2OS cells, beta-arrestin-GFP redistribution, primary screen (AID 1961)
# Assay type: functional
Active and inactive are the calls of the source.
recorded-metric: EC50

{"columns": ["smiles-entry", "EC50"],
 "data": [
  ["O=C(CSc1nc2ccccc2s1)N1c2ccccc2Sc2ccc(C(F)(F)F)cc21", "1000 nM (active)"]
]}

List reported EC50 for each of these compounds:
1. CCOC(=O)c1sc2cc([N+](=O)[O-])cc(SCC(C)C)c2c1N
2. CC1CCN(Cc2c(C(=O)N/N=C/c3cc(Br)ccc3O)nnn2-c2nonc2N)CC1

1: 523 nM (active); 2: 1630 nM (active)

List reported EC50 for each of these compounds:
1. C=CCN1C(=O)/C(=C\C=C2\N(C)c3ccccc3C2(C)C)SC1=S
2. COC(=O)c1ccc2c(c1)C(C)(C)C(/C=C/c1ccc(OC)c(OC)c1OC)=[N+]2C

1: > 32000 nM (inactive); 2: 1510 nM (active)

====

# system: Peroxisome proliferator-activated receptor gamma/Nuclear receptor coactivator 1 (Homo sapiens, UniProt P37231)
# Sequence (P37231 whole entry): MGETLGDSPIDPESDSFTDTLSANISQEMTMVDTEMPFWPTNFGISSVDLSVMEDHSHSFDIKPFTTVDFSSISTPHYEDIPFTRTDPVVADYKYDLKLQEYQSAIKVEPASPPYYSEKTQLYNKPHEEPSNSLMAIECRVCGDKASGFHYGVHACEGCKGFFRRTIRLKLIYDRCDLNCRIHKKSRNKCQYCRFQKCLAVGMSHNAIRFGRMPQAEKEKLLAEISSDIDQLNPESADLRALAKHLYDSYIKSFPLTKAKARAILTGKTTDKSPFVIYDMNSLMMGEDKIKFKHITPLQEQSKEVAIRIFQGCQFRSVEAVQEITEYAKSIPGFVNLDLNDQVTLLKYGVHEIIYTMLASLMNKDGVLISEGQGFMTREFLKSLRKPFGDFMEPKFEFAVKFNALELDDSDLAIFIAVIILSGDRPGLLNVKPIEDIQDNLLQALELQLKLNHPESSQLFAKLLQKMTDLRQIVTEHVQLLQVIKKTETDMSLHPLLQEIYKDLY
# Sequence (Q15788 whole entry, further chain): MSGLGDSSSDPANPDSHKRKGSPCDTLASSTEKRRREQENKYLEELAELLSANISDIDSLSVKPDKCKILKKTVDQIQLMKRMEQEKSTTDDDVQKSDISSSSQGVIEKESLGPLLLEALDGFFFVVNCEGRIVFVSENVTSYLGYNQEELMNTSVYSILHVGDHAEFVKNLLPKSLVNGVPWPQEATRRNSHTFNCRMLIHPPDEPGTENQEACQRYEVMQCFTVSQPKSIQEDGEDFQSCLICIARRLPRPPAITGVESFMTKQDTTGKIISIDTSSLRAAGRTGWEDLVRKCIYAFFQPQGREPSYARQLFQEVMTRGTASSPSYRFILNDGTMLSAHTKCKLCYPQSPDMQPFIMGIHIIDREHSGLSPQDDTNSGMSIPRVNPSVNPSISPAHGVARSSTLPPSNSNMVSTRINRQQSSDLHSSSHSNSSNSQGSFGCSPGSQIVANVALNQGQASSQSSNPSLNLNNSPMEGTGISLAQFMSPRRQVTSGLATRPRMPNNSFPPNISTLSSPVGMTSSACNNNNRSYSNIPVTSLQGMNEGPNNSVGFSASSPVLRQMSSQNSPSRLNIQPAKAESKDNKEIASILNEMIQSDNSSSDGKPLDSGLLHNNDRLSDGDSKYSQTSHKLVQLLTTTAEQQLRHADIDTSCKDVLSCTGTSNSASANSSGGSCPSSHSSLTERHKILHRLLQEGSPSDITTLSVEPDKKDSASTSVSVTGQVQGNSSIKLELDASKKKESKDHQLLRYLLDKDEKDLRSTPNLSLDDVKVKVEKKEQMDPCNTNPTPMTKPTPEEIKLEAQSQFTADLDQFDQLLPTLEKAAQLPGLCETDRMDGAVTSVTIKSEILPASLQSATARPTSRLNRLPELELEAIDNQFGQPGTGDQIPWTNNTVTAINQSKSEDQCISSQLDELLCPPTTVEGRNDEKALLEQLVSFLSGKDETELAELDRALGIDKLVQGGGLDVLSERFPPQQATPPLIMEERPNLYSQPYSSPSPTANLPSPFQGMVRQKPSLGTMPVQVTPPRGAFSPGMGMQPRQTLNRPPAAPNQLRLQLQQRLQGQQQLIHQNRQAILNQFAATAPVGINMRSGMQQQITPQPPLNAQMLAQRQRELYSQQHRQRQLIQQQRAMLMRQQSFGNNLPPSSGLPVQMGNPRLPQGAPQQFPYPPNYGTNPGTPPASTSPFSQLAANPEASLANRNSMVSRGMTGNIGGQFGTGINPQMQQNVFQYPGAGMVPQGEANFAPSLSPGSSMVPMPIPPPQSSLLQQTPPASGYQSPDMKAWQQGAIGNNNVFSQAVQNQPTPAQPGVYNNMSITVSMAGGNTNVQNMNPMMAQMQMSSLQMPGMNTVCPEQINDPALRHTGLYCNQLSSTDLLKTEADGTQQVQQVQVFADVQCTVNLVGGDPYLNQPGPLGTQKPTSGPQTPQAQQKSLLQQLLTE
# assay-remarks: TR-FRET dose response biochemical High Throughput Screening assay for agonists of the steroid receptor coactivator 1 (SRC-1) recruitment by the peroxisome proliferator-activated receptor gamma (PPAR gamma): non-selective agonists. [Related pubchem assays (depositor defined):AID1300, AID1808, AID504735, AID631]
# Assay type: protein assay
The source made the active and inactive calls.
Response enum: active, inactive

// below: answered molecules
{"columns": ["smiles-entry", "assigned-category"],
 "data": [
  ["Cn1c(=O)cc(SCC(=O)N2CCN(C(=O)c3ccco3)CC2)c2ccccc21", "inactive"],
  ["CC1=NOC(=O)/C1=C\\c1ccc(-c2ccccc2Br)o1", "active"],
  ["CCOC(=O)CSc1c(-c2cccs2)[nH]c2ccccc12", "inactive"],
  ["CCOC(=O)C1CCN(C(=O)CSc2cc(=O)n(CC)c3ccccc23)CC1", "inactive"]
]}

Just curious, what result did O=C(O)Cc1sc(-c2ccccc2)nc1-c1cccs1 get here?
inactive

====

# assay-remarks: viability of HCT116 lacking mutant beta-catenin – cell-based, human colon tumor, dose response (AID 1045);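 note: HCT116 colon tumor cells with beta catenin knocked out; cells exposed to compound for 60 hours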
# Format: functional
Activity calls are given as the source filed them.
Would you kindly list EC50 for each of these molecules?

Here are 3 molecules together with their reported answers.
{"columns": ["smiles-entry", "EC50"],
 "data": [
  ["CCc1cc2c(=O)c(-c3ccc4c(c3)OCCO4)coc2cc1OS(C)(=O)=O", "18 µM (active)"],
  ["C=CCn1c(SCC(=O)c2[nH]c(C)c(C(=O)OCC)c2C)nc2scc(-c3ccccc3)c2c1=O", "3.85 µM (active)"],
  ["CCN(CC)S(=O)(=O)c1cc(-c2nnc(-c3ccc(Br)cc3)o2)ccc1Cl", "21.5 µM (active)"]
]}

Requested read-out: EC50. Entry: CN(C)CCCNS(=O)(=O)c1ccc(N2CCC(c3ccc(Cl)cc3)=N2)cc1
4.67 µM (active)

====

# system: Small ubiquitin-related modifier 1 (Homo sapiens)
# Sequence (P63165 whole entry): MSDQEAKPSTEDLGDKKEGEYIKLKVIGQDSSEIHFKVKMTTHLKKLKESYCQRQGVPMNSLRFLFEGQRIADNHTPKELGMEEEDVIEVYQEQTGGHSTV
# assay-remarks: SUMO1 protein-protein binding blockers, potency – biochemical, FRET, dose response (AID 624383)
# Assay type: functional
# settings: read-out: IC50_Mean
Calls of active or inactive are those of the source.
Response enum: true = active, false = inactive

{"columns": ["compound", "assigned-category"],
 "data": [
  ["N#CC(C#N)=C1NC(N)=C(C#N)C(c2ccccc2)=C1C#N", "false"],
  ["Cc1c(CCC(=O)O)c(=O)oc2c(C)c3occ(-c4ccc(Br)cc4)c3cc12", "true"],
  ["COc1ccc(C(=O)Nc2ccccc2C(=O)NC(Cc2ccc(O)cc2)C(=O)NNC(=O)c2ccc(C)cc2)cc1 (centres undefined)", "true"]
]}

Attention now turns to another entry.
Just curious, what result did CSc1ccc(/C=N/Nc2cccc(C(=O)O)c2)cc1 get here?
true
